# System: SK-MEL-5 melanoma
# ASSAY: NCI-60 one-dose screen, 48 h
# ASSAY CONDITIONS: 10 µM unless noted
Compounds without any hit were thinned out: in the full panel of roughly 83,000, 20% have a hit. Calls of active or inactive are those of the source. The calls were made as follows: active = growth percent below 10; inactive = the rest.
Permitted responses: 1 (active), -1 (inactive)

Recorded results for 2 compounds are shown here.
{"COMPOUND": "COc1cc(-c2c(-c3ccccc3)c[nH]c2C(=O)NCCCO)c(OC)c2c1OCO2", "TARGET": "SK-MEL-5 melanoma", "ASSIGNED CLASS": -1}
{"COMPOUND": "C=C(C)Cn1c(SCC(=O)c2cccs2)nc2sc3c(c2c1=O)CCCC3", "TARGET": "SK-MEL-5 melanoma", "ASSIGNED CLASS": -1}

Dear colleague, could you share the recorded outcome for "COCCNC(=O)Cc1cc(-c2ccc(Cl)cc2)n(-c2ccccc2)c1C" when you have a moment?
-1

I'd appreciate the recorded outcome for "Cn1cc(-c2ccc3occ(-c4cccc(-c5ccncc5)c4)c3n2)cn1" from this test.
1

# fetch the recorded call for "O=c1c(/C=C/c2c(O)ccc3ccccc23)nnc2sc(-c3cccc([N+](=O)[O-])c3)nn12" here
-1

Which outcome was assigned to CC1(C)CC(=O)C2=C(C1)OC(C(=O)c1ccccc1)C2c1cccc(Oc2ccccc2)c1 (stereo not given) in this test?
-1

====

# Test system: SK-MEL-28 melanoma
# ASSAY: NCI-60 one-dose screen, 48 h (100 = growth as untreated, 0 = no growth, -100 = all killed)
# ASSAY CONDITIONS: 10 µM unless noted
This is part of a sample that, as a whole, favours compounds with a hit. Of some 83,000 tested, about 20% had one in any assay.
MEASURE: growth (%)
Numbers only, in %.

{"CHEMICAL SMILES": "CC(=O)[C@H]1CC[C@]2(C)[C@@H]1CC[C@@H]1[C@@]3(C)C/C(=C/c4cccnc4)C(=O)C(C)(C)[C@@H]3CC[C@]12C", "DATA VALUE": 94.9}

Would you mind giving growth for every compound in the list below?
1. CC1=NN(c2cccc(Cl)c2)C(=O)/C1=C\C=C\c1ccccc1
2. CN1/C(=C/C=C/c2n(Cc3ccc4ccccc4c3)c(Cl)c(Cl)[n+]2Cc2ccc3ccccc3c2)Oc2ccccc21
3. COC(=O)c1c(C)nc(C)c2c1C(=O)C(Br)=C(NCCCCO)C2=O
4. CC(C)CCc1nc2ccc(NCc3ccc(OCCN4CCC(C)CC4)cc3)cc2[nH]1

1: -69.7; 2: -89.5; 3: 102; 4: 75.7

For each of the compounds below, note its growth.
1. O=C1c2ccccc2-c2c1c1ccncc1c(=O)n2CCCn1ccnc1
2. Oc1ccc(C2OCCO2)c2cccnc12
3. C=CC(=O)NCc1cccc(Nc2ncc(Br)c(NCCCNC(=O)C3CCC3)n2)c1
4. CCN(CC)CCCNc1cc(OC)cc2cccnc12

88.3
63.4
-15.7
126

Entry "CCN(CC)CCCNC(=O)c1c2c(n3ccccc13)C(=O)c1ncccc1C2=O" ; growth = 22.8

====

# Test system: MDA-MB-231 breast
# ASSAY: NCI-60 one-dose screen, 48 h (100 = growth as untreated, 0 = no growth, -100 = all killed)
# ASSAY CONDITIONS: 10 µM unless noted
This is part of a sample that, as a whole, favours compounds with a hit. Of some 83,000 tested, about 20% had one in any assay.
Field: growth. Provide a value for each of the compounds that follow.
One number for each entry, in %.

Worked examples, 6 compounds total:
{"COMPOUND": "O=C(O)c1cc2ccccc2s1", "growth, %": 104}
{"COMPOUND": "C=C1C(=O)O[C@H]2[C@H]1CC/C(COC(=O)NCc1ccc(Cn3c(=O)sn(CCCC)c3=O)cc1)=C\\CC[C@@]1(C)O[C@@H]21", "growth, %": 38.4}
{"COMPOUND": "N#Cc1nn(-c2ccccn2)c(N)c1C#N", "growth, %": 109}
{"COMPOUND": "O=C(O)c1nn(-c2ccc(Cl)cc2)nc1N1CCCC1", "growth, %": 101}
{"COMPOUND": "COc1ccc(CNc2c3ccccc3nc3ccccc23)cc1OC", "growth, %": 19.4}
{"COMPOUND": "COc1cc(C2=Nc3c(N)nc(N)nc3NC(c3cccc(Nc4ccnc5cc(C(F)(F)F)ccc45)c3)C2)cc(OC)c1OC (stereo not given)", "growth, %": 57.8}

For each entry beneath this line, provide reported growth.
1. O=C(OCC(O)(CO)C(=O)NC12CC3CC(CC(C3)C1)C2)c1ccc(Cl)cc1 (stereo not given)
2. Oc1ccc(C(c2ccc(O)cc2)c2ccc(Cl)cn2)cc1
3. CC1=C(C(=O)c2ccccc2)C(c2ccc3c(c2)OCO3)NC(=S)N1 (stereo not given)
4. Cc1cc(N2CCOCC2)nc(N(CCCNc2ccnc3cc(Cl)ccc23)Cc2ccc3c(c2)OCO3)n1

101
77.1
79.1
-37.1

====

# Tested on: UO-31 renal
# ASSAY: NCI-60 one-dose screen, 48 h
# ASSAY CONDITIONS: 10 µM unless noted
This is part of a sample that, as a whole, favours compounds with a hit. Of some 83,000 tested, about 20% had one in any assay. The source made the active and inactive calls. How the source made its calls: active means growth percent below 10; inactive means the rest.
Could you please pick one outcome from this set? y (active), n (inactive)

{"COMPOUND": "O=C(CN1C(=O)c2ccccc2S1(=O)=O)Nc1nc(-c2cc3ccccc3oc2=O)cs1", "ASSIGNED CLASS": "n"}
{"COMPOUND": "COC(=O)c1sc(-c2ccc(C)cc2)cc1O", "ASSIGNED CLASS": "n"}
{"COMPOUND": "CC/C(=C(/c1ccc(Cl)cc1)c1ccc(OCCN(CC)CC)cc1)c1ccc(OC)cc1", "ASSIGNED CLASS": "n"}
{"COMPOUND": "N#CC1=C(N)Oc2c(ccc3cccnc23)C1c1ccccc1 (stereo unspecified)", "ASSIGNED CLASS": "n"}
{"COMPOUND": "Cc1ccccc1NC(=O)Cn1cc(CN2CCN(c3ccnc4cc(Cl)ccc34)CC2)nn1", "ASSIGNED CLASS": "n"}

Per the records of this test, what outcome belongs to COc1cc2c(c(OC)c1OC)CCC(c1cccc(NC(=O)c3cccc(Cl)c3)c1)O2 (stereo unspecified) ?
n

Hi, do you know how "CC(=O)/C(Br)=C/c1ccc(Br)o1" came out in this test?
n

# lookup: test call for "CN(CCNc1ccc(C(=N)N)cc1)c1ccc(C(=N)N)cc1"
n

So what was the verdict on CC1=C([Se]CC(OC(=O)[C@@H](CO)NC(=O)OC(C)(C)C)C(=O)NCCCCCC(=O)OCc2ccccc2)C(=O)c2ccccc2C1=O (stereo partly specified) in this test?
y

====

# System: T-47D breast
# ASSAY: NCI-60 one-dose screen, 48 h (100 = growth as untreated, 0 = no growth, -100 = all killed)
# ASSAY CONDITIONS: 10 µM unless noted
The panel holds about 83,000 compounds, 20% with a hit somewhere; the sample as a whole holds those more often. Calls of active or inactive are those of the source. How the source made its calls: active means growth percent below 10; inactive means the rest.
MEASURE: growth

{"MOLECULE": "CS(=O)(=O)c1ccc(/C(=N/NC(N)=S)c2ccc(F)cc2)cc1", "MEASURE": "growth", "DATA VALUE": "88.2% (inactive)"}

Report growth for each item below.
1. CCOc1ccc(N2C(=O)CCSC2=S)cc1
2. COC(=O)[C@@H](Cc1c[nH]c2ccccc12)NC(=O)[C@H](Cc1ccccc1)NCc1ccncc1
3. O=C(Nc1ccc2[nH]ncc2c1)c1csc(Nc2ccccc2)n1
4. CCOC(=O)c1ccc2c(c1)c1c(C)c3cnccc3c(C)c1n2C
5. O=c1n(C2OC(CO)C(O)C2O)ccc2nccn12 (configuration not stated)

1. 104% (inactive)
2. 93.2% (inactive)
3. 37.1% (inactive)
4. -23.1% (active)
5. 118% (inactive)

# batch: return growth for each of the 8 molecules below
1. Cc1nn(-c2ccccc2)c(Oc2ccccc2)c1/C=N/NC(=O)Cn1c(=O)sc2ccccc21
2. Cc1nc2sc(C(=O)Nc3ccccc3)c(N)c2cc1C(O)c1ccccc1 (configuration not stated)
3. CCOC(=O)c1c(C)c2c(n1Cc1ccccc1)CSc1cc(C#N)c(=O)[nH]c1-2
4. CN1CC(c2ccccc2)C(C(=O)c2ccc(Br)cc2)C12C(=O)Nc1ccccc12 (configuration not stated)
5. O=C(Nc1ccccc1C(F)(F)F)C1=NCCCCN1
6. C1=C2CCCC3=Cc4ccccc4OC23Oc2ccccc21
7. COC(=O)[C@H](C)NC(=O)c1ccc(NC(=O)c2[nH]c(C)c(Cl)c2Cl)c(OCCN)c1
8. COc1cc(OCc2cccc(-c3ccccc3)c2C)cc(OC)c1CN1CCCCC1C(=O)NCCOCCOCCN (configuration not stated)

1. 14.7% (inactive)
2. 54.6% (inactive)
3. 69.2% [100 µM] (inactive)
4. 81.5% (inactive)
5. 101% (inactive)
6. 31.9% (inactive)
7. 99.6% (inactive)
8. 71.2% (inactive)
